- Tested on: HCT-116 cell line
- EXPERIMENTAL PROTOCOL: Inhibition of cell growth, MTT tetrazolium salt assay
- Format: cell-based
- MEASUREMENT CONTEXT: HCT-116 cells, 0.1 μM compound
I'd be grateful if you could share measured HCT-116 % Inhibition at 0.1 μM for these entries.
Write the value in % as a bare number.

get_value(item= Nc1nc(Nc2ccc(C(=O)Nc3ccc4[nH]ccc4c3)cc2)sc1C(=O)c1c(F)cccc1F , readout=HCT-116 % Inhibition at 0.1 μM) returns 17

// sample Nc1nc(Nc2ccc(C(=O)NCCc3c(Cl)cccc3Cl)cc2)sc1C(=O)c1c(F)cccc1F , its HCT-116 % Inhibition at 0.1 μM was 19

Record Nc1nc(Nc2ccc(C(=O)NCC(O)c3ccccc3)cc2)sc1C(=O)c1c(F)cccc1F (stereo not shown) , field HCT-116 % Inhibition at 0.1 μM: 11

# HCT-116 % Inhibition at 0.1 μM of CN(Cc1ccco1)C(=O)c1ccc(Nc2nc(N)c(C(=O)c3c(F)cccc3F)s2)cc1 = 8

Summary for this molecule, CCCCN(C)C(=O)c1ccc(Nc2nc(N)c(C(=O)c3c(F)cccc3F)s2)cc1 : HCT-116 % Inhibition at 0.1 μM is 11

// field: HCT-116 % Inhibition at 0.1 μM; key: COC(=O)c1ccc(NC(=O)c2ccc(Nc3nc(N)c(C(=O)c4c(F)cccc4F)s3)cc2)c(C)c1 ; value = 31

The recorded HCT-116 % Inhibition at 0.1 μM for Cc1cc(NC(=O)c2ccc(Nc3nc(N)c(C(=O)c4c(F)cccc4F)s3)cc2)no1 is 8

Reported HCT-116 % Inhibition at 0.1 μM for Cc1ccc(CNC(=O)c2ccc(Nc3nc(N)c(C(=O)c4c(F)cccc4F)s3)cc2)cc1Cl was 25

HCT-116 % Inhibition at 0.1 μM reported for this molecule Nc1nc(Nc2ccc(C(=O)N3CCN(c4ccccn4)CC3)cc2)sc1C(=O)c1c(F)cccc1F : 17

Data point: Nc1nc(Nc2ccc(C(=O)NCCc3cccc(C(F)(F)F)c3)cc2)sc1C(=O)c1c(F)cccc1F ; HCT-116 % Inhibition at 0.1 μM = 25

###

Kindly supply the reported HCT-116 % Inhibition at 0.1 μM values for the records listed here.
- Tested on: HCT-116 cell line
- EXPERIMENTAL PROTOCOL: Inhibition of cell growth, MTT tetrazolium salt assay
- Assay type: cell-based
- MEASUREMENT CONTEXT: HCT-116 cells, 0.1 μM compound
Give me the value, and tack the unit on after it.

# HCT-116 % Inhibition at 0.1 μM (compound: CCN(CCc1ccccn1)C(=O)c1ccc(Nc2nc(N)c(C(=O)c3c(F)cccc3F)s2)cc1 [Example G251] ) is 16%

Sample CCN(CC)CCN1CCN(C(=O)c2ccc(Nc3nc(N)c(C(=O)c4c(F)cccc4F)s3)cc2)CC1 [Example G374] ; HCT-116 % Inhibition at 0.1 μM observed: 21%

For Nc1nc(Nc2ccc(C(=O)N3CCN(Cc4ccccc4)CC3)cc2)sc1C(=O)c1c(F)cccc1F [Example G217] the compound record lists HCT-116 % Inhibition at 0.1 μM as 8%

response.value for CCN(CC)CCCC(C)NC(=O)c1ccc(Nc2nc(N)c(C(=O)c3c(F)cccc3F)s2)cc1 (stereo not drawn) [Example G239] (field: HCT-116 % Inhibition at 0.1 μM) = 21%

# HCT-116 % Inhibition at 0.1 μM of COc1ccc(CNC(=O)c2ccc(Nc3nc(N)c(C(=O)c4c(F)cccc4F)s3)cc2)cc1OC [Example G345] = 22%

Reported HCT-116 % Inhibition at 0.1 μM of CC(C)NC(=O)CN1CCN(C(=O)c2ccc(Nc3nc(N)c(C(=O)c4c(F)cccc4F)s3)cc2)CC1 [Example G335] : 3%

Query C=C(C)CNC(=O)c1ccc(Nc2nc(N)c(C(=O)c3c(F)cccc3F)s2)cc1 [Example G223] yields HCT-116 % Inhibition at 0.1 μM of 14%

Measured HCT-116 % Inhibition at 0.1 μM, COc1cccc(CNC(=O)c2ccc(Nc3nc(N)c(C(=O)c4c(F)cccc4F)s3)cc2)c1 [Example G246] : 20%

The compound listed as COC(=O)c1ccc(NC(=O)c2ccc(Nc3nc(N)c(C(=O)c4c(F)cccc4F)s3)cc2)cc1OC [Example G220] has a reported HCT-116 % Inhibition at 0.1 μM of 18%

// sample COc1ccc(NC(=O)c2ccc(Nc3nc(N)c(C(=O)c4c(F)cccc4F)s3)cc2)cc1OC [Example G212] , its HCT-116 % Inhibition at 0.1 μM was 17%

Lab note: Nc1nc(Nc2ccc(C(=O)NCCc3ccncc3)cc2)sc1C(=O)c1c(F)cccc1F [Example G268] gave HCT-116 % Inhibition at 0.1 μM of 26%

Measured HCT-116 % Inhibition at 0.1 μM of COc1cc(CNC(=O)c2ccc(Nc3nc(N)c(C(=O)c4c(F)cccc4F)s3)cc2)cc(OC)c1OC [Example G234] : 20%

Query Cc1cccc(CNC(=O)c2ccc(Nc3nc(N)c(C(=O)c4c(F)cccc4F)s3)cc2)c1C [Example G294] yields HCT-116 % Inhibition at 0.1 μM of 15%

HCT-116 % Inhibition at 0.1 μM reported for this compound NC(=O)C(CO)NC(=O)c1ccc(Nc2nc(N)c(C(=O)c3c(F)cccc3F)s2)cc1 (stereo not drawn) [Example G198] : 9%

GET /value?item= Nc1nc(Nc2ccc(C(=O)NCc3ccccc3F)cc2)sc1C(=O)c1c(F)cccc1F [Example G221] &field=HCT-116 % Inhibition at 0.1 μM returns 20%

Sure, the documented HCT-116 % Inhibition at 0.1 μM for Nc1nc(Nc2ccc(C(=O)NCc3cc(Cl)ccc3Cl)cc2)sc1C(=O)c1c(F)cccc1F [Example G286] is 10%

Consider Nc1nc(Nc2ccc(C(=O)N3CCCCC3CCO)cc2)sc1C(=O)c1c(F)cccc1F (stereo not drawn) [Example G265] . Its measured HCT-116 % Inhibition at 0.1 μM is 21%

Entry under test: CCCN(CCC#N)C(=O)c1ccc(Nc2nc(N)c(C(=O)c3c(F)cccc3F)s2)cc1 [Example G364] . Its HCT-116 % Inhibition at 0.1 μM was 20%

HCT-116 % Inhibition at 0.1 μM recorded for this compound, CCN(CC)C(=O)C1CCCN(C(=O)c2ccc(Nc3nc(N)c(C(=O)c4c(F)cccc4F)s3)cc2)C1 (stereo not drawn) [Example G224] , is 10%

Measured HCT-116 % Inhibition at 0.1 μM, CCCN(CCO)C(=O)c1ccc(Nc2nc(N)c(C(=O)c3c(F)cccc3F)s2)cc1 [Example G233] : 16%

Lab note: measured HCT-116 % Inhibition at 0.1 μM of CC(C)(CO)CNC(=O)c1ccc(Nc2nc(N)c(C(=O)c3c(F)cccc3F)s2)cc1 [Example G263] was 26%

Input CCOc1ccccc1CCNC(=O)c1ccc(Nc2nc(N)c(C(=O)c3c(F)cccc3F)s2)cc1 [Example G380] . Output HCT-116 % Inhibition at 0.1 μM: 26%

Entry under test: Nc1nc(Nc2ccc(C(=O)NCCN3CCNC3=O)cc2)sc1C(=O)c1c(F)cccc1F [Example G229] . Its HCT-116 % Inhibition at 0.1 μM was 8%

According to the records, this compound Nc1nc(Nc2ccc(C(=O)Nc3ccc(Cl)cc3)cc2)sc1C(=O)c1c(F)cccc1F [Example G288] displays HCT-116 % Inhibition at 0.1 μM of 16%

###

- EXPERIMENTAL SYSTEM: human CDK4/cyclin D3 (Homo sapiens)
- Construct: made in house; host or cells: insect cells co-infected with baculovirus vectors
- Sequence (P11802 whole entry): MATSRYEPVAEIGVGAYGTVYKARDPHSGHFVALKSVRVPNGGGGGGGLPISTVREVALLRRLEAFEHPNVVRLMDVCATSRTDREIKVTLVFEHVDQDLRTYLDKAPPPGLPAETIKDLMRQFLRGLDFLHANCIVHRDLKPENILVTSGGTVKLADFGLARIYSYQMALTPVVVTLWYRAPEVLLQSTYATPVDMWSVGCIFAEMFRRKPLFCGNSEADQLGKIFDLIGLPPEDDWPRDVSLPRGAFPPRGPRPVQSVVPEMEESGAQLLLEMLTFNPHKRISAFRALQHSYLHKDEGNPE
- Sequence (P30281 1-264 partner limits assumed): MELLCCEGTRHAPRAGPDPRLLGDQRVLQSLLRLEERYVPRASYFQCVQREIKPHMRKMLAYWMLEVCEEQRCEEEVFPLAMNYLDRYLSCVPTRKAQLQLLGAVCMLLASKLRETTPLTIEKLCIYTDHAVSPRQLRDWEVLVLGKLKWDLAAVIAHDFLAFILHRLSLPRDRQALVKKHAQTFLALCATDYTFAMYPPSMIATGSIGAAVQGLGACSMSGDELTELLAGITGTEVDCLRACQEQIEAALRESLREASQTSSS
- EXPERIMENTAL PROTOCOL: Inhibition of CDK4/cyclin D retinoblastoma kinase activity (Ki; % inhibition)
- Format: biochemical
- MEASUREMENT CONTEXT: at 0.03 μM
MEASURED ATTRIBUTE: CDK4 % Inhibition at 0.03 μM (%)
Reply numerically in %, unit not repeated.

The compound identified as N#CCCN(CC1CCCO1)C(=O)c1ccc(Nc2nc(N)c(C(=O)c3c(F)cccc3F)s2)cc1 (stereo not drawn) registered its CDK4 % Inhibition at 0.03 μM at 10

Per the record, Nc1nc(Nc2ccc(C(=O)N3CCC(O)CC3)cc2)sc1C(=O)c1c(F)cccc1F has CDK4 % Inhibition at 0.03 μM of 10

For record Nc1nc(Nc2ccc(C(=O)N3CCc4ccccc4C3)cc2)sc1C(=O)c1c(F)cccc1F the listed CDK4 % Inhibition at 0.03 μM is 10

###

- EXPERIMENTAL SYSTEM: CDK2/cyclin A (Homo sapiens)
- Construct: made in house; host or cells: CDK2: insect cells (baculovirus); cyclin A: E. coli
- EXPERIMENTAL PROTOCOL: Inhibition of CDK2/cyclin A retinoblastoma kinase activity (Ki; % inhibition)
- Assay type: biochemical
- MEASUREMENT CONTEXT: 0.03 μM compound
- Description: Cyclin-dependent kinase activity was measured by quantifying the enzyme-catalyzed, time-dependent incorporation of radioactive phosphate from [^32P]ATP or [^33P]ATP into a protein substrate. […] The phosphorylated substrate was then captured on a nitrocellulose or phosphocellulose membrane using a 96-well filtration manifold, and unincorporated radioactivity was removed by repeated washing with 0.85% phosphoric acid. Radioactivity was quantified by exposing the dried membranes to a phosphorimager. […]
Quick rule: CDK2 % Inhibition at 0.03 μM of at least 10% means true (1), below that means false (0).

Q. Determine whether this compound has CDK2 % Inhibition at 0.03 μM no lower than 10%: COCCN1CCN(C(=O)c2ccc(Nc3nc(N)c(C(=O)c4c(F)cccc4F)s3)cc2)CC1
A. true (1)

Q. Check if CDK2 % Inhibition at 0.03 μM >= 10% (inclusive). Item: Nc1nc(Nc2ccc(C(=O)NCc3ccco3)cc2)sc1C(=O)c1c(F)cccc1F
A. true (1)

Q. Does Nc1nc(Nc2ccc(C(=O)NCc3cccc(Cl)c3)cc2)sc1C(=O)c1c(F)cccc1F have a reported CDK2 % Inhibition at 0.03 μM of at least 10%?
A. true (1)

Q. Exam item: decide whether the reported CDK2 % Inhibition at 0.03 μM for COc1ccc(CCNC(=O)c2ccc(Nc3nc(N)c(C(=O)c4c(F)cccc4F)s3)cc2)cc1 is at least 10%.
A. true (1)

Q. # check: CDK2 % Inhibition at 0.03 μM of Nc1nc(Nc2ccc(C(=O)N(CCCCO)Cc3ccccc3)cc2)sc1C(=O)c1c(F)cccc1F is greater than or equal to 10%
A. false (0)

Q. Check this compound for CDK2 % Inhibition at 0.03 μM at or above 10%: CCCCN(CCCC)C(=O)c1ccc(Nc2nc(N)c(C(=O)c3c(F)cccc3F)s2)cc1
A. false (0)

Q. Form field: CDK2 % Inhibition at 0.03 μM at least 10%? Entry: Nc1nc(Nc2ccc(C(=O)NC3c4ccccc4CC3O)cc2)sc1C(=O)c1c(F)cccc1F (stereo not shown)
A. true (1)

Q. Could you tell me if the measured CDK2 % Inhibition at 0.03 μM of COc1ccc(NC(=O)c2ccc(Nc3nc(N)c(C(=O)c4c(F)cccc4F)s3)cc2)cc1OC reaches 10% or more?
A. true (1)

Q. Check if CDK2 % Inhibition at 0.03 μM >= 10% (inclusive). Item: Nc1nc(Nc2ccc(C(=O)NCCc3ccc(Cl)c(Cl)c3)cc2)sc1C(=O)c1c(F)cccc1F
A. true (1)

Q. Dear colleague, could you confirm whether Nc1nc(Nc2ccc(C(=O)NC(CO)CSCc3ccccc3)cc2)sc1C(=O)c1c(F)cccc1F (stereo not shown) has CDK2 % Inhibition at 0.03 μM at or above 10%?
A. true (1)

Q. I'd appreciate it if you could say whether Nc1nc(Nc2ccc(C(=O)NCCC3OCCO3)cc2)sc1C(=O)c1c(F)cccc1F has CDK2 % Inhibition at 0.03 μM at least equal to 10%.
A. false (0)

Q. API: above_or_equal(metric=CDK2 % Inhibition at 0.03 μM, cutoff=10%) for item Cc1cccc(NC(=O)c2ccc(Nc3nc(N)c(C(=O)c4c(F)cccc4F)s3)cc2)c1
A. false (0)

Q. For this compound, is measured CDK2 % Inhibition at 0.03 μM 10% or higher? Nc1nc(Nc2ccc(C(=O)Nc3ccc(Cl)nc3)cc2)sc1C(=O)c1c(F)cccc1F
A. false (0)

Q. For this compound, is measured CDK2 % Inhibition at 0.03 μM 10% or higher? CCN(CC)CCCC(C)NC(=O)c1ccc(Nc2nc(N)c(C(=O)c3c(F)cccc3F)s2)cc1 (stereo not shown)
A. true (1)

Q. Is CDK2 % Inhibition at 0.03 μM for CCOC(=O)C1CCN(C(=O)c2ccc(Nc3nc(N)c(C(=O)c4c(F)cccc4F)s3)cc2)CC1 at or above 10%?
A. true (1)

Q. Decide: CDK2 % Inhibition at 0.03 μM of Nc1nc(Nc2ccc(C(=O)NCc3ccncc3)cc2)sc1C(=O)c1c(F)cccc1F >= 10%?
A. false (0)

Q. Does the compound Cc1ccc(NC(=O)c2ccc(Nc3nc(N)c(C(=O)c4c(F)cccc4F)s3)cc2)cc1 have recorded CDK2 % Inhibition at 0.03 μM that is 10% or more?
A. true (1)

Q. # bool: CDK2 % Inhibition at 0.03 μM of Nc1nc(Nc2ccc(C(=O)N3CCCCC3CCO)cc2)sc1C(=O)c1c(F)cccc1F (stereo not shown) >= 10%
A. false (0)

Q. Threshold query (CDK2 % Inhibition at 0.03 μM >= 10%) on CC(C)(C)c1ccc(CNC(=O)c2ccc(Nc3nc(N)c(C(=O)c4c(F)cccc4F)s3)cc2)cc1
A. true (1)

Q. API: above_or_equal(metric=CDK2 % Inhibition at 0.03 μM, cutoff=10%) for item CC1CC(C)CN(C(=O)c2ccc(Nc3nc(N)c(C(=O)c4c(F)cccc4F)s3)cc2)C1 (stereo not shown)
A. false (0)

Q. Threshold query (CDK2 % Inhibition at 0.03 μM >= 10%) on COc1ccc(CNC(=O)c2ccc(Nc3nc(N)c(C(=O)c4c(F)cccc4F)s3)cc2)cc1OC
A. false (0)

Q. Check this compound for CDK2 % Inhibition at 0.03 μM at or above 10%: Nc1nc(Nc2ccc(C(=O)NCCc3ccc(Cl)cc3)cc2)sc1C(=O)c1c(F)cccc1F
A. false (0)

Q. Exam item: decide whether the reported CDK2 % Inhibition at 0.03 μM for N#CCCNc1ccccc1NC(=O)c1ccc(Nc2nc(N)c(C(=O)c3c(F)cccc3F)s2)cc1 is at least 10%.
A. false (0)

Q. Record Nc1nc(Nc2ccc(C(=O)N3CCN(c4ccccn4)CC3)cc2)sc1C(=O)c1c(F)cccc1F ; criterion: CDK2 % Inhibition at 0.03 μM no lower than 10%. Met?
A. false (0)
